- tested-on: Mu-type opioid receptor (Homo sapiens) + Delta-type opioid receptor (Homo sapiens) (UniProt P35372+P41143)
- Sequence (P35372 whole entry, looked up): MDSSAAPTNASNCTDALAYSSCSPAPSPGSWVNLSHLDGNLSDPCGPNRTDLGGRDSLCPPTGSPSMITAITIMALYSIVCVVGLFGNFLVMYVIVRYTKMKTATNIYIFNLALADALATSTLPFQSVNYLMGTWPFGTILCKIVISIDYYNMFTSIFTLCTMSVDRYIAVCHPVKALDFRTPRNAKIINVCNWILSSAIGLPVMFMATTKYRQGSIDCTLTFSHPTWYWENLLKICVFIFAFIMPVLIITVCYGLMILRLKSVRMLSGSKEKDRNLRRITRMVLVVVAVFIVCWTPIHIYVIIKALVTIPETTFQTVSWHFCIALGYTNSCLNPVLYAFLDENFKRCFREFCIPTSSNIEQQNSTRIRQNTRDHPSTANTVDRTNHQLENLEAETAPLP
- Sequence (P41143 whole entry, looked up): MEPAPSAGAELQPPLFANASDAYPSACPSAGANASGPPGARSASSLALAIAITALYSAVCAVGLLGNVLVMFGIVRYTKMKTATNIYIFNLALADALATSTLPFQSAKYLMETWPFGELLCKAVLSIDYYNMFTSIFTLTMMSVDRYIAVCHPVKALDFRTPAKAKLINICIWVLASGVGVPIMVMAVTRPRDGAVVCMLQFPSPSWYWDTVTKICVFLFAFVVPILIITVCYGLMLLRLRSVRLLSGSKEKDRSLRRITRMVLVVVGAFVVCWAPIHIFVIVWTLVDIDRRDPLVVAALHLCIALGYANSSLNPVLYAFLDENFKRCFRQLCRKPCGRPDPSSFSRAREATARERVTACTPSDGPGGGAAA
- protocol-notes: agonists of OPRM1-OPRD1 heterodimerization, primary screen, cell-based, luminescence (AID 504326);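 also: 0% = vehicle-treated cells and 100% = reference agonist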
- assay-conditions: cells, at 9.3 µM, active compounds read high
The campaign covered roughly 340,000 compounds. About 990 (0.29%) were called active. For the sample, actives were picked, then their nearest neighbours and some compounds at random.
assay-endpoint: activation (%)
Numbers only, in %.

CCN1CCC2(CC1)N=C(c1ccc(F)cc1)C(=S)N2C(=O)c1ccc(C)cc1	13.8
Cc1ccc(NC(=O)COc2ccc(/C=C3/NC(=O)NC3=O)cc2)cc1	2.37
COc1cccc(CC2(CO)CCCN(Cc3nc(-c4cccs4)oc3C)C2)c1 (centres undefined)	0.45

Would you mind listing activation for each of the following compounds?
1. COc1cc(C(=O)OCC(=O)NC23CC4CC(CC(C4)C2)C3)cc(OC)c1OC
2. COc1ccc(-n2nnnc2-c2nc3ccccc3s2)cc1
3. Cc1ccc2cccc(O)c2[n+]1[O-]

Resp:
-1.44
20.4
4.35

Would you mind listing activation for each of the following compounds?
1. CCOc1ccccc1-c1nc(CN2CCC(C(=O)N3CCOCC3)CC2)c(C)o1
2. CCOC(=O)C1(CC2CCCCO2)CCN(Cc2nc(-c3cccs3)oc2C)CC1 (centres undefined)
3. COCCCNc1nc2c(-c3cccc(C(F)(F)F)c3)nnn2c2ccccc12

Resp:
[-0.49, 45.6, -0.55]
